# measuredTarget: T1, recombinant protein His-fib-hTL1A (human)
# T1 construct: expressed in HEK293 cells; also called human TL1A
# T1 chain: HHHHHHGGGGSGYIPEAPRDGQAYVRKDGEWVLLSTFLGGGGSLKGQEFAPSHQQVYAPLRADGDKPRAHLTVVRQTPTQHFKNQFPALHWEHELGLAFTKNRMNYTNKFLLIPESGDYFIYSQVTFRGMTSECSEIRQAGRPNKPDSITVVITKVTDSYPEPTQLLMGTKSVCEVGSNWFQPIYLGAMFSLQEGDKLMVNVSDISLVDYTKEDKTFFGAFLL
# assayRemarks: SPR, Biacore T200; antibody captured by anti-human IgG (Fc), TL1A as analyte; 1:1 model
measuredAttribute: koff (s⁻¹)

mouse anti-TL1A monoclonal antibody S4D3 (antibody, V domains shown) VH: QVQLKESGSDLATPGASVKLSCKVSGYTFTKYDINWVRQRPEQGLEWIGWIFPGDGRTDYNEKFKGKATLTIDTSSSTAYMQLSRLTSEDSAVYFCARYGYALDYWGQGTSVTVSS VL: DVVMTQTPLSLPVSLGDQASISCRSSQNIVHSNGDTYLEWFLQKPGQSPKLLIYKVSNRFSGVPDRFSGSGSGTDFTLKISRVEAEDLGVYYCFQGSHFPYTFGGGTKLEMKR
0.000131
mouse anti-TL1A monoclonal antibody S9H9 (antibody, V domains shown) VH: QVQLKQSGAELVRPGTSVKISCKASGYAFTNYWLGWIKQRPGHGLEWIGDIHPGRGNIFYNEKFKGKATLTADKSSSTAYMQLSSLTSEDSAVYFCAEGYDTFDYWGQGTTLTVSA VL: DIVMTQSHKFMSTSVGDRVSITCKASQDVSTAVAWYQQKPGQSPKLLIYSASYRYTGVPDRFTGSGSGTDFTFTISSVQAEDLAVYYCQQHYSTPWTFGGGTKLEMKR
0.000501
anti-TL1A monoclonal antibody PRA023 (antibody, V domains shown) VH: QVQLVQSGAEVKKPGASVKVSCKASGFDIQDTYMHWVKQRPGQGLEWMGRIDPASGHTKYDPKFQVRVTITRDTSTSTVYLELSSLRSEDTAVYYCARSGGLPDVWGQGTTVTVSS VL: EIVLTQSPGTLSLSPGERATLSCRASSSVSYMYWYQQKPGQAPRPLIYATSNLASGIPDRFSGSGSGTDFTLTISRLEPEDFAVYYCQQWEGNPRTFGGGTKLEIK
0.000169
mouse anti-TL1A monoclonal antibody S7B11 (antibody, V domains shown) VH: QVKLQQSGGELVRPGTSVKISCKASGYAFTNYWLGWIKQRPGHGLEWIGDIHPGRGNIYYNEKFKGKATLTADKSSSTAYMQLSSLTSEDSAVYFCAEGYDTFDYWGQGTTLTVSS VL: DIVMTQSPSYLAASPGETITINCRASKSISKYLAWYQEKPGKTNKLLIYSGSTLQSGIPSRFSGSGSGTDFTLTISSLEPEDFAMYYCQQHNEYPYTFGGGTKLEIKR
0.00011
